This section presents binders with their documented Cytotoxicity EC50, OCI-M2 MPL CALRins5 cells values.
target: CALRins5 (mutant calreticulin, 5 base pair insertion, Type 2) expressed with MPL on engineered cancer cells (UniProt P27797); assay: cell-based or functional assay
Sequence (P27797 other isoform, or with tags, fused parts or gaps mutant limits assumed): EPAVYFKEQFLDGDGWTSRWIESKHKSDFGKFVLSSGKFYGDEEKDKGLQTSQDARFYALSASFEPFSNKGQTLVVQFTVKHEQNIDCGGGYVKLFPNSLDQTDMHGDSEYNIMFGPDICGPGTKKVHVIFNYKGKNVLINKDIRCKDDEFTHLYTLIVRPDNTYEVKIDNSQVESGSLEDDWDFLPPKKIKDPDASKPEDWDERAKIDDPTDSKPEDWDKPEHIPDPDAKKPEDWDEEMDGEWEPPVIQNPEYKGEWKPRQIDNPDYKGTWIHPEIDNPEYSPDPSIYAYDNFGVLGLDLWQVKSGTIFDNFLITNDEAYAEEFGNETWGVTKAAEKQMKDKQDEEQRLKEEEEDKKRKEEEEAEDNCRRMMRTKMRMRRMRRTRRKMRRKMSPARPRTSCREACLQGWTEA
Give the value in µg/mL but do not write µg/mL after it.

Example cases with answers are listed next.
[[record]]
binder = "CALRB75 (MP1004 Fab x CD3W245-LH-scFv, medium affinity) (bispecific antibody, part only; not given: CD3 scFv arm and IgG1 constant regions, V domains shown, not shown: another chain or arm of the molecule; a dimerising Fc or GST; small tags and cut ends) VL: DPMLTQTPSSVSAAVGGTVTINCQSSQSVYNNNWLSWLQQKPGQPPNRLIYDASKLESGVPSRFSGSGSGTQFTLTISGVQSDDAATYYCAGGFTGNVYTFGGGTEVVVK VH: QEQLEESGGRLVTPGTPLTLTCKVSGIDLSNNAISWVRQAPGKGLEYIGVIGNTGDTYYASWAKGRFTISKTSSTTVDLKMTSLTTEDTATYFCVRGPPSYSNSVKNIWGPGTLVTISS"
unitssymbol = "µg/mL"
experimentalresult = 0.129

[[record]]
binder = "CALRB77 (MP1010 Fab x CD3W245-LH-scFv, medium affinity) (bispecific antibody, part only; not given: anti-CD3 scFv arm, constant regions, V domains shown, not shown: another chain or arm of the molecule; a dimerising Fc or GST; small tags and cut ends) VL: DPMLTQTPSSVSAAVGGTVTIGCQSSQSVYDKNWLSWYQQKPGQPPSRLIYDASKLESGVPSRFSGSGSGTQFTLTISGVQSDDVATYYCAGGFTGNVYAFGGGTEVVVK VH: QSVEESGGRLVTPGTPLTLTCTVSGIDLSNNAISWVRQAPGKGLEYIGVIGNTGDTYYASWAKGRFTISKTSSTTVDLKMTSLTTEDTATYFCVRGPPSYSNSVKNIWGPGTLVTISS"
unitssymbol = "µg/mL"
experimentalresult = 0.189


In the following, a different binder is considered.
INPUT: Cytotoxicity EC50, OCI-M2 MPL CALRins5 cells lookup needed for CALRB79 (MP1016 Fab x CD3W245-LH-scFv, medium affinity) (bispecific antibody, part only; not given: anti-CD3 scFv arm, constant regions, V domains shown, not shown: another chain or arm of the molecule; a dimerising Fc or GST; small tags and cut ends) VL: DPVLTQTESPVSAAVGGTVTINCQASQSVYDDNNLAWYQQKPGQPPKRLIYPASTLASGVSSRFSGSGSGSQFTLTISDVQSDDAATYYCQGEFSCTSADCVAFGGGTEVVVK VH: QEQLKESGGRLVTPGTPLTLTCTASGFSLSNYYMSWVRQAPGKGLEWIGGISSRAGTWYASWAKGRFTISGTSTTMDLKITSPTTEDTATYFCARGLKIWGPGTLVTVSS , thanks.
OUTPUT: 0.0911

Hey, just so you know, these numbers are from patent US20260125457A1.
